Cited source: patent US9637490B2

- procedureSummary: Solubility in buffer systems A-G
- Format: physicochemical
- conditionParameters: pH 7.4, aqueous buffer, thermodynamic from solid, buffer pH 7.4; ambient temperature; read-out: Solubility, buffer system E

| molecule | solubility |
| --- | --- |
| CCc1ccc(C2=NCc3ccc(Cl)cc3-n3cccc32)cc1 [drawing 29] | < 1 µg/mL |

====

- Test system: Trichophyton rubrum B68183
- procedureSummary: Antifungal activity in vitro (resazurin susceptibility screen), Inf. C
- Type: cell-based
- conditionParameters: Trichophyton rubrum, B68183, Trichophyton rubrum B68183; 27 °C, 7 days, resa time 24 hours
In plain terms, low IC50, meaning strictly below 400 nM, gives t, and everything else gives f.

| compound | targetDesc | cat |
| --- | --- | --- |
| CC(F)(F)c1ccc(C2=NCc3c(Cl)cccc3-n3cccc32)cc1F [Compound 29] | Trichophyton rubrum B68183 | t |
| CC(F)(F)c1ccc(C2=NCc3cccc(Cl)c3-n3cccc32)cc1 [Compound 19] | Trichophyton rubrum B68183 | t |
| CC(F)(F)c1cc(C2=NCc3c(Cl)cc(F)cc3-n3cccc32)ccc1F [Compound 26] | Trichophyton rubrum B68183 | f |
| CC(F)(F)c1ccc(C2=NCc3c(Cl)cccc3-n3cccc32)cc1 [Compound 4] | Trichophyton rubrum B68183 | t |
| CC(F)(F)c1cc(C2=NCc3c(F)cccc3-n3cccc32)ccc1F [Compound 20] | Trichophyton rubrum B68183 | t |
| CC(F)(F)c1cc(C2=NCc3c(Cl)cc(Cl)cc3-n3cccc32)ccc1F [Compound 25] | Trichophyton rubrum B68183 | f |
| Cc1ccc(Cl)c2c1CN=C(c1ccc(C(C)(F)F)cc1)c1cccn1-2 [Compound 28] | Trichophyton rubrum B68183 | f |
| CC(F)(F)c1ccc(C2=NCc3c(F)cccc3-n3cccc32)cc1 [Compound 15] | Trichophyton rubrum B68183 | t |
| CC(F)(F)c1ccc(C2=NCc3c(ccc(Cl)c3Cl)-n3cccc32)cc1 [Compound 10] | Trichophyton rubrum B68183 | f |
| CC(F)(F)c1cc(C2=NCc3c(Cl)cccc3-n3cccc32)ccc1F [Compound 21] | Trichophyton rubrum B68183 | t |
| CC(F)(F)c1ccc(C2NCc3c(Cl)cc(F)cc3-n3cccc32)cc1.Cl (stereo not drawn) [Compound 24] | Trichophyton rubrum B68183 | f |
| CC(F)(F)c1ccc(C2=NCc3c(F)cc(Cl)cc3-n3cccc32)cc1 [Compound 32] | Trichophyton rubrum B68183 | f |
| CC(F)(F)c1cc(C2=NCc3c(F)cc(F)cc3-n3cccc32)ccc1F [Compound 23] | Trichophyton rubrum B68183 | t |
| CC(F)(F)c1ccc(C2=NCc3c(F)cc(F)cc3-n3cccc32)cc1 [Compound 18] | Trichophyton rubrum B68183 | t |
| CC(F)(F)c1cccc(C2=NCc3c(Cl)cccc3-n3cccc32)c1 [Compound 14] | Trichophyton rubrum B68183 | t |
| CC(F)(F)c1ccc(C2=NCc3c(Cl)ccc(Cl)c3-n3cccc32)cc1 [Compound 8] | Trichophyton rubrum B68183 | f |
| CC(F)(F)c1ccc(C2=NCc3ccc(Cl)c(Cl)c3-n3cccc32)cc1 [Compound 22] | Trichophyton rubrum B68183 | f |
| CC(F)(F)c1ccc(C2=NCc3ccc(Cl)cc3-n3cccc32)cc1 [Compound 17] | Trichophyton rubrum B68183 | f |

====

- procedureSummary: Solubility in buffer systems A-G
- Format: physicochemical
- conditionParameters: pH 4, aqueous buffer, thermodynamic from solid, buffer pH 4; ambient temperature; read-out: Solubility, buffer system B
measurementLabel: solubility

| molecule | result |
| --- | --- |
| CCc1ccc(C2=NCc3ccc(Cl)cc3-n3cccc32)cc1 [drawing 29] | < 1 µg/mL |

====

| molecule | melting point |
| --- | --- |
| CC(F)(F)c1ccc(C2=NCc3c(Cl)ccc(Cl)c3-n3cccc32)cc1 | 162.3 to 163.5 °C |
| CC(F)(F)c1ccc(C2=NCc3c(Cl)cccc3-n3cccc32)cc1 | 215.2 to 217.6 °C |
| CC(F)(F)c1ccc(C2=NCc3c(Cl)cc(F)cc3-n3cccc32)cc1F | 162.5 to 164.8 °C |
| CC(F)(F)c1ccc(C2=NCc3ccc(Cl)c(Cl)c3-n3cccc32)cc1 | 140.9 to 142.1 °C |
| CC(F)(F)c1ccc(C2=NCc3c(F)cccc3-n3cccc32)cc1F | 170.8 to 171.5 °C |
| CC(F)(F)c1ccc(C2=NCc3c(Cl)cccc3-n3cccc32)cc1F | 186.3 to 186.6 °C |
| CC(F)(F)c1cc(C2=NCc3c(Cl)cc(F)cc3-n3cccc32)ccc1F | 84.9 to 85.9 °C |
| CC(F)(F)c1ccc(C2=NCc3c(F)cc(F)cc3-n3cccc32)cc1F | 158.2 to 161.3 °C |
| CC(F)(F)c1ccc(C2NCc3c(Cl)cccc3-n3cccc32)cc1.Cl (centres unmarked) [Compound 3] | 206.3 to 206.8 °C |
| Cc1cc(Cl)cc2c1CN=C(c1ccc(C(C)(F)F)cc1)c1cccn1-2 | 89.6 to 91.2 °C |
| CC(F)(F)c1cccc(C2=NCc3c(Cl)cccc3-n3cccc32)c1 | 106.9 to 109.7 °C |
| CC(F)(F)c1ccc(C2=NCc3c(F)cc(Cl)cc3-n3cccc32)cc1 | 145.3 to 147.4 °C |
| CC(F)(F)c1ccc(C2=NCc3cccc(Cl)c3-n3cccc32)cc1 | 247.5 °C (dec.) |
| CC(F)(F)c1ccc(C2=NCc3cc(Cl)cc(Cl)c3-n3cccc32)cc1 | 132.1 to 134.2 °C |
| CC(F)(F)c1ccc(C2NCc3c(Cl)cc(F)cc3-n3cccc32)cc1.Cl (centres unmarked) | 240 to 240.7 °C |
| CC(F)(F)c1ccc(C2=NCc3ccc(Cl)cc3-n3cccc32)cc1 | 115.3 °C (dec.) |
| Cc1ccc(Cl)c2c1CN=C(c1ccc(C(C)(F)F)cc1)c1cccn1-2 | 139.3 to 141.2 °C |
| CC(F)(F)c1ccc(C2NCc3c(Cl)cccc3-n3cccc32)cc1.Cl (centres unmarked) [Compound 2] | 206.7 to 207.6 °C |
| CC(F)(F)c1cc(C2=NCc3c(Cl)cc(Cl)cc3-n3cccc32)ccc1F | 124.2 to 125.4 °C |
| CC(F)(F)c1cc(C2=NCc3c(F)cc(F)cc3-n3cccc32)ccc1F | 143.2 to 144.3 °C |

====

- Test system: Scedosporium prolificans IHEM21157
- procedureSummary: Antifungal activity in vitro (resazurin susceptibility screen), Inf. I
- Assay type: cell-based
- conditionParameters: Lomentospora prolificans, 37 °C, 48 hours, resa time 17 hours
pIC50: −log10 of the molar value.
measurementLabel: pIC50

| compound | qualifierSign | resultNumber |
| --- | --- | --- |
| Cc1ccc(Cl)c2c1CN=C(c1ccc(C(C)(F)F)cc1)c1cccn1-2 [Compound 28] | = | 5.64 |
| CC(F)(F)c1ccc(C2=NCc3c(Cl)cccc3-n3cccc32)cc1F [Compound 29] | < | 4.19 |
| CC(F)(F)c1ccc(C2=NCc3cccc(Cl)c3-n3cccc32)cc1 [Compound 19] | = | 6.29 |
| CC(F)(F)c1ccc([C@H]2NCc3c(Cl)cccc3-n3cccc32)cc1 (single isomer, unassigned) [Compound 3] | = | 6.15 |
| CC(F)(F)c1ccc(C2=NCc3ccc(Cl)cc3-n3cccc32)cc1 [Compound 17] | = | 6.12 |
| CC(F)(F)c1ccc(C2=NCc3c(Cl)cc(F)cc3-n3cccc32)cc1 [Compound 27] | = | 7.00 |
| CC(F)(F)c1cc(C2=NCc3c(Cl)cccc3-n3cccc32)ccc1F [Compound 21] | = | 7.30 |
| CC(F)(F)c1cccc(C2=NCc3c(Cl)cccc3-n3cccc32)c1 [Compound 14] | = | 5.88 |
| CC(F)(F)c1ccc(C2=NCc3c(F)cc(F)cc3-n3cccc32)cc1F [Compound 33] | = | 4.98 |
| Cc1cc(Cl)cc2c1CN=C(c1ccc(C(C)(F)F)cc1)c1cccn1-2 [Compound 16] | = | 5.92 |
| CC(F)(F)c1cc(C2=NCc3c(Cl)cc(F)cc3-n3cccc32)ccc1F [Compound 26] | = | 6.72 |
| CC(F)(F)c1ccc(C2=NCc3c(F)cc(F)cc3-n3cccc32)cc1 [Compound 18] | = | 6.10 |
| CC(F)(F)c1ccc(C2=NCc3c(F)cccc3-n3cccc32)cc1 [Compound 15] | = | 5.60 |
| CC(F)(F)c1ccc(C2=NCc3c(Cl)cc(Cl)cc3-n3cccc32)cc1 [Compound 9] | = | 5.22 |
| CC(F)(F)c1ccc(C2=NCc3c(F)cccc3-n3cccc32)cc1F [Compound 30] | = | 5.34 |
| CC(F)(F)c1ccc(C2=NCc3c(F)cc(Cl)cc3-n3cccc32)cc1 [Compound 32] | < | 4.19 |
| CC(F)(F)c1ccc(C2=NCc3c(Cl)cc(F)cc3-n3cccc32)cc1F [Compound 31] | = | 5.06 |
| CC(F)(F)c1cc(C2=NCc3c(F)cc(F)cc3-n3cccc32)ccc1F [Compound 23] | = | 7.00 |
| CC(F)(F)c1cc(C2=NCc3c(Cl)cc(Cl)cc3-n3cccc32)ccc1F [Compound 25] | = | 6.30 |
| CC(F)(F)c1cc(C2=NCc3c(F)cccc3-n3cccc32)ccc1F [Compound 20] | = | 6.80 |
| CC(F)(F)c1ccc(C2=NCc3c(Cl)cccc3-n3cccc32)cc1 [Compound 4] | = | 6.83 |
